Every entry's value here was drawn from patent US20260028391A1.

- System under test: RSV fusion glycoprotein (RSV-F) (respiratory syncytial virus)
- Protocol notes: SPR; F protein loaded on streptavidin sensors, mAb in solution
Listed here are binders together with their documented Kd.
Answer in pM, number only, no unit symbol.

Known results for binders:
{"Binder": "MPK155 (antibody, V domains shown, VH and VL only) VH: EVQLVESGGGLVKPGGSLRLSCEASGISLSGYYMIWIRQAPGKGLEWISSISSSSNYIDYADSVRGRFTISRHNGQNTLYLQMNSLRVEDTAVYFCATEQTPSPGPFDLWGQGILVTVSS VL: QSVLTQPPSVSGAPGQRVTIFCTGTSSNLGAGYDVHWYQQFPGTSPKLLIYRYTNRPSGVPDRFSGSKSGSSASLAIAGLQAEDEADYYCQSYDRSVSGWVFGGGTKLTVL", "Units symbol": "pM", "Kd": 6.3}
{"Binder": "MPK153 (antibody, V domains shown, VH and VL only) VH: EVHLVESGGGLVKPGGSLRLSCAASGFTFTGYFMIWIRQAPGKGLEWISYISSSSNYINYADSVKGRFTISRDNGQNTLYLQMNSLRPDDTAVYYCATEQVPSPGPFDLWGQGTLVTVSS VL: QSVLTQPPSVSGAPGQRVIISCTGTSSNIGAGYDVHWYQQFPGASPKLLIFRNTDRPSGVPDRFSGSKSGSSASLAIAGLQAEDEADYYCQSYDRSLDGWVFGGGTKVTVL", "Units symbol": "pM", "Kd": 460}

Now let's try a different one.
Which measured Kd value corresponds to MPK152 (antibody, V domains shown, VH and VL only) VH: EVQLVESGGGLVKPGGSLRLSCAASGLTISGYYMIWIRQAPGKGLEWISYISGSSSYTNYADSVKGRFTISRDNGQNTLFLQMDSLRVEDTAVYFCATEETPSPGPFGLWGQGTLVTVSS VL: QSVVTQPPSVSGAPGQRVTISCTGTSSNIGAGYDVHWYQQFPGTSPKLLIFRNTNRPSGVPDRFSGSTSGSSASLAITGLQTEDEADYYCQSYDRSLDGWVFGGGTELTVL ?
1
